# protocol_notes: Mice PK study
# Assay type: in vivo, Balb/c mice
# cond: male, Balb/c, mouse, plasma, 10 mg/kg, PO
recorded_endpoint: bioavailability (%)
State the answer as a number, implicitly in %.

Please report the recorded bioavailability for Cc1c(-c2cc3ccccc3n2Cc2ccc(F)cc2)nc2cc(C(=O)N3CCC[C@@H](N)C3)ccn12 .
63

* * *

# protocol_notes: Solubility
# Type: physicochemical
recorded_endpoint: solubility

Please report the recorded solubility for Cc1c(-c2cc3ccccc3n2Cc2ccc(F)cc2)nc2cc(C(=O)N3CCC[C@@H](N)C3)ccn12 .
90 µM

* * *

# protocol_notes: Mice PK study
# Format: in vivo, Balb/c mice
# cond: male, Balb/c, mouse, plasma, 10 mg/kg, PO
recorded_endpoint: AUC(0-t) (ng·h/mL)
State the answer as a number, implicitly in ng·h/mL.

Please report the recorded AUC(0-t) for Cc1c(-c2cc3ccccc3n2Cc2ccc(F)cc2)nc2cc(C(=O)N3CCC[C@@H](N)C3)ccn12 [JBI-589] .
12500
